Where do the numbers come from? From ChEMBL document CHEMBL1201862.

Test system: XF498
Test: NCI tumour cell line growth inhibition, 48 h
Active and inactive are the calls of the source. Rule as the data show it: active = GI50 up to about 1.1 µM and inactive = higher.
Parameter GI50: see the listing below.

1) COc1ccc2c([nH]c3cc(O)c(C)cc32)c1C=O ... > 25 µM (inactive)

The measured GI50 associated with O=C(N/C(=C\c1c(O)ccc2ccccc12)c1nc2ccccc2[nH]1)c1ccccc1 reads > 100 µM (inactive)

Input CN1CCCNCCN(CCc2ccccn2)CCCN(C)CC1 . Output GI50: > 100 µM (inactive)

###

// reported GI50 for each item listed
Test system: DMS-114
Assay: NCI tumour cell line growth inhibition, 48 h
The source made the active and inactive calls. Rule as the data show it: active = GI50 up to about 1.1 µM and inactive = higher.

# annotated cases, reported GI50 shown
1. COc1cccc(NC(=S)Nn2c(C)nc3ccccc3c2=O)c1 ... > 100 µM (inactive)
2. Cc1cc2cccc(Cl)c2nc1C(=O)c1ccccc1 ... > 100 µM (inactive)

Would you kindly look at the next entry?
Given item O=C(c1ccc(F)cc1)c1cccc(C(=O)c2ccc(F)cc2)n1 , the value recorded as its GI50 is 23.9 µM (inactive)
